Target: T1, CLDN6 endogenously expressed by human cancer cell lines (ARK2, OVCA429) (human, UniProt P56747 1-220)
T1 construct: Untagged endogenous protein; also called Endogenous CLDN6+
T1 sequence: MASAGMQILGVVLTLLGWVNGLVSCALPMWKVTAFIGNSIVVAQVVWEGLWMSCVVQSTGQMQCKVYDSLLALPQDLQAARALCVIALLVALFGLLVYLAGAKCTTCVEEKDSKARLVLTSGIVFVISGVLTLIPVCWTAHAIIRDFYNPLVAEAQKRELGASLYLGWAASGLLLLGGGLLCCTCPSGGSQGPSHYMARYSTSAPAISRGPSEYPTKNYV
Test: FACS, 1.5 µg Ab, ARK2 cells
MEASUREMENT_TYPE: FACS fluorescence
Please reply with the value in numeric form only.

Recorded FACS fluorescence of AB1-8 (antibody, V domains shown, Humanized; also called Humanized AB 1-8) VH: QVQLVQSGAEVKKPGASVKMSCKASGYTFTTYTMHWVRQAPGQGLEWIGFINPSSGYTDYAQKFQGRVTLTADTSTSTVYMELSSLRSEDTAVYYCANGDYYVAYWGQGTLVTVSS VL: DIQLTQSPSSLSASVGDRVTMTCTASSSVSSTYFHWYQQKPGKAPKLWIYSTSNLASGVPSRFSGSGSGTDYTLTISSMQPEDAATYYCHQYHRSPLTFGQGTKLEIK , please.
17600
